Please provide measured stoichiometry N for the entries that follow.
# experimental system: the molecule itself
# assay explanation: dynamic light scattering
Numbers only.

AGT LM-p.I244T p.S81A (enzyme, human) MASHKLLVTPLKALLKPLSIPNQLLLGPGPSNLPPRIMAAGGLQMIGSMSKDMYQIMDEIKEGIQYVFQTRNPLTLVISGAGHCALEAALVNVLEPGDSFLVGANGIWGQRAVDIGERIGARVHPMTKDPGGHYTLQEVEEGLAQHKPVLLFLTHGESSTGVLQPLDGFGELCHRYKCLLLVDSVASLGGTPLYMDRQGIDILYSGSQKALNAPPGTSLISFSDKAKKKMYSRKTKPFSFYLDTKWLANFWGCDDQPRMYHHTIPVISLYSLRESLALIAEQGLENSWRQHREAAAYLHGRLQALGLQLFVKDPALRLPTVTTVAVPAGYDWRDIVSYVMDHFDIEIMGGLGPSTGKVLRIGLLGCNATRENVDRVTEALRAALQHCPKKKL    2

Challenge: Give the measured stoichiometry N of AGT LM-p.G170R p.S81A (enzyme, human) MASHKLLVTPLKALLKPLSIPNQLLLGPGPSNLPPRIMAAGGLQMIGSMSKDMYQIMDEIKEGIQYVFQTRNPLTLVISGAGHCALEAALVNVLEPGDSFLVGANGIWGQRAVDIGERIGARVHPMTKDPGGHYTLQEVEEGLAQHKPVLLFLTHGESSTGVLQPLDGFRELCHRYKCLLLVDSVASLGGTPLYMDRQGIDILYSGSQKALNAPPGTSLISFSDKAKKKMYSRKTKPFSFYLDIKWLANFWGCDDQPRMYHHTIPVISLYSLRESLALIAEQGLENSWRQHREAAAYLHGRLQALGLQLFVKDPALRLPTVTTVAVPAGYDWRDIVSYVMDHFDIEIMGGLGPSTGKVLRIGLLGCNATRENVDRVTEALRAALQHCPKKKL .
Response given: 2

Hello, the source for this data is paper doi:10.1101/2025.04.14.648764, in case you need it.
